B1: HDV Ribozyme (parent)
chain: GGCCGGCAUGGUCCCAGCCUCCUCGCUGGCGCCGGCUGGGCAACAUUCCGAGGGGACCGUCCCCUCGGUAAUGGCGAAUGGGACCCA

variants of: B1; assay: self-cleavage, relative activity (ratio to wild type); higher = more cleavage; co-transcriptional
Each entry falls in a class defined on self-cleavage; the bands are bucket 1: < 0.1; bucket 2: ≥ 0.1 and < 0.5; bucket 3: ≥ 0.5

INSERT INTO measurements (mutationlabel, assignedcategory) VALUES
  ('C48U U60G', 'bucket 3'),
  ('A45G A56U', 'bucket 3'),
  ('U27G C32A', 'bucket 2'),
  ('G5C U27C', 'bucket 1'),
  ('G1C C62G', 'bucket 1');

Hey, which category is G34A C84U in, do you know?
bucket 2

Hey, which category is C26G G29U in, do you know?
bucket 2

Hey, which category is G40C A83G in, do you know?
bucket 2

Hey, which category is C21G G34A in, do you know?
bucket 1

Hey, which category is U47G A56G in, do you know?
bucket 3

Hey, which category is G25A G53U in, do you know?
bucket 2

Hey, which category is C19U A42U in, do you know?
bucket 1

Origin of values: the RNAGym collection of RNA variant scans (doi:10.7554/elife.80360)
